- TGT: ABCC4 (Homo sapiens)
- ASSAY_NAME: biochemical
- Format: biochemical
- CONDITION_SET: ABCC4 IC50, 34°C; cAMP-efflux, inside-out vesicles, 20 µM 3H-cAMP, 60 min
REPORTED_ENDPOINT: IC50 (µM)

| SMILES_REPR | REPORTED_ENDPOINT | RESULT_UNIT | NUMERIC_RESULT |
| --- | --- | --- | --- |
| Cc1[nH]c(=O)c(C#N)cc1-c1ccncc1 | IC50 | µM | 67 |

###

- TGT: ABCC4 (Homo sapiens)
- Sequence (O15439 1-1325): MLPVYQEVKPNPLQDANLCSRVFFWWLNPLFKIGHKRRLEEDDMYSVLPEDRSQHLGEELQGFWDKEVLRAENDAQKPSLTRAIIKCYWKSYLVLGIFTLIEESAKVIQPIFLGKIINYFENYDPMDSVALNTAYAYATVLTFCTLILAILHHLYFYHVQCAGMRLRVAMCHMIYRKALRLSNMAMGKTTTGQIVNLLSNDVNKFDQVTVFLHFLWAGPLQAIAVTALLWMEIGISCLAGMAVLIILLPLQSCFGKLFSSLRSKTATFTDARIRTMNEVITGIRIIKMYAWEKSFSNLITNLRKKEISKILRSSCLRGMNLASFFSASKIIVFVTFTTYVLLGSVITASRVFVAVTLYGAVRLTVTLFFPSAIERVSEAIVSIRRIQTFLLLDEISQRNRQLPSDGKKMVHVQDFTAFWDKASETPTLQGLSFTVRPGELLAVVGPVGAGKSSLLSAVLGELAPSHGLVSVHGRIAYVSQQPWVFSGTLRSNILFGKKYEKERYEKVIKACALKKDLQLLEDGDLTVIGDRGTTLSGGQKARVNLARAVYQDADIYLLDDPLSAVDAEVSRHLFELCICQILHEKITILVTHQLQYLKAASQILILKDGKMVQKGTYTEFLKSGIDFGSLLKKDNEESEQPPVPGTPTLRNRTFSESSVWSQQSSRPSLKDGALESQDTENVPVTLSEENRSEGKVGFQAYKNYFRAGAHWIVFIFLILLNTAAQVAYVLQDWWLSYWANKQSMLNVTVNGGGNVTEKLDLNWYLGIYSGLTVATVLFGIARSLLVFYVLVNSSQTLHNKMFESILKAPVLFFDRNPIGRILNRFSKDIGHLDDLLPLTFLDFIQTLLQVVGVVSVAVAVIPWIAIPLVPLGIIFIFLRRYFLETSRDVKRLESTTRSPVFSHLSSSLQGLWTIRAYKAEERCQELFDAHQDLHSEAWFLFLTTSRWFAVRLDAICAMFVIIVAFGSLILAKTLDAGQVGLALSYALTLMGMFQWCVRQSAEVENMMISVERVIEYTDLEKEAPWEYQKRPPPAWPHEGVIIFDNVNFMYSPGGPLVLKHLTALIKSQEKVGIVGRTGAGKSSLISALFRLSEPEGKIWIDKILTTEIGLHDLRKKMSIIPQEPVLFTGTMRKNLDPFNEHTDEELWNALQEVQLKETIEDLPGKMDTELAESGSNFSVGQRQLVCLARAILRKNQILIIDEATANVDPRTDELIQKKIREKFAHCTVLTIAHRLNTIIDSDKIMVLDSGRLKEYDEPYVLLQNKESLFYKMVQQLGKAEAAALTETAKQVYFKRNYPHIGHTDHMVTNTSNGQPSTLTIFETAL
- ASSAY_NAME: biochemical
- Assay type: biochemical
- CONDITION_SET: ABCC4 Ki, 32°C; cAMP-efflux, inside-out vesicles

| MOLECULE | TGT | RESULT_UNIT | Ki |
| --- | --- | --- | --- |
| Cc1[nH]c(=O)c(C#N)cc1-c1ccncc1 [Milrinone] | ABCC4 (Homo sapiens) | µM | 20 |
